- measurementTarget: human V1a receptor (Homo sapiens, UniProt P37288)
- Construct: expressed in transfected cells; host or cells: HEK293 cells, transiently transfected; cell membranes
- Sequence (P37288 whole entry): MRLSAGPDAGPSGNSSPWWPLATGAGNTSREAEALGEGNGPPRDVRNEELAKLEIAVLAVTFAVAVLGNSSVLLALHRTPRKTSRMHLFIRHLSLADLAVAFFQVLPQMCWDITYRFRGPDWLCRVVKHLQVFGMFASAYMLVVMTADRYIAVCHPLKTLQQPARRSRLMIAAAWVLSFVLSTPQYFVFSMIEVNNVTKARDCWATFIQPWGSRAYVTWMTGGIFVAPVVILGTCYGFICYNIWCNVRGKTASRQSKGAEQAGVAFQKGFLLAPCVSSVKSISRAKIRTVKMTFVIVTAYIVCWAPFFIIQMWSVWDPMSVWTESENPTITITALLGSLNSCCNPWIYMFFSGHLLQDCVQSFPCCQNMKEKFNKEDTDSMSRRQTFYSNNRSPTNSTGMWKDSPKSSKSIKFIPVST
- protocol: human V1a receptor binding studies (3H-Vasopressin, SPA beads)
- conditionInfo: membranes of HEK293 cells transiently transfected with human V1a receptor, Ki by Cheng-Prussoff from IC50, read-out: pKi hV1a (converted)
measuredMetric: Ki (nM)
Please state the figure in nM; there is no need to write the unit.

Some compounds with recorded Ki:
O=C1N=C(N2CCC3(CC2)OCc2ccccc23)OC1CC1CCCC1 (single isomer, unassigned; enantiomer b) [Example 14] : 2.51
CC1(C)OC2(CCN(C3=NC(=O)C(Cc4ccccc4)O3)CC2)c2ccccc21 (stereo not drawn) : 0.631
CC1(CC2CCCOC2)OC(N2CCC3(CC2)OCc2ccccc23)=NC1=O (single isomer, unassigned; diastereomer b) [Example 104] : 50.1
O=C1N=C(N2CCC3(CC2)OCc2ccccc23)OC1C(F)c1ccc(Cl)cc1 (single isomer, unassigned) [Example 47] : 20
O=C1N=C(N2CCC3(CC2)OCc2ccccc23)OC12CCN(Cc1ccccc1)CC2 : 398
C=CCC1(CC(=C)Br)OC(N2CCC3(CC2)OCc2ccccc23)=NC1=O (stereo not drawn) : 12.6
C=CCC1(CC(=C)F)OC(N2CCC3(CC2)OCc2ccccc23)=NC1=O (stereo not drawn) : 631
O=C1N=C(N2CCC3(CC2)OCc2ccccc23)OC1C(F)c1ccc(Cl)cc1 (single isomer, unassigned) [Example 46] : 31.6
O=C1OC2(CCN(C3=NC(=O)C(Cc4ccc(Cl)cc4)(Cc4ccc(Cl)cc4)O3)CC2)c2ccccc21 : 5.01
O=C1N=C(N2CCC3(CC2)OCc2ccccc23)OC12CC=C(C(F)(F)F)C2 (stereo not drawn) : 1.26

Now for the compound whose Ki we want.
Any idea what Ki was measured for `O=C1N=C(N2CCC3(CC2)OCc2ccccc23)OC1(Cc1ccc(Cl)cc1)Cc1ccc(Cl)cc1` ? 1

The values you see were collected from patent US9828385B2.
